Entries and their measured Cell differentation/cell proliferation HL-60 follow.
# Test system: HL-60 cells
# protocol description: HL-60 cell differentiation (NBT reduction)
# Format: cell-based
# condition info: % of the activity of 1α,25-(OH)2D3 at 50% of its activity (B50); human leukemia cells
property: Cell differentation/cell proliferation HL-60 (%)

compound	uom	observed result
CC(CC#CC(C)(C)O)C1CCC2C(=CC=C3CC(O)CC(O)C3)CCCC21C (stereo not shown) [Compound 46]	%	1650
CC(CC#CC(C)(C)O)C1CCC2C(=CC=C3CC(O)CC(O)C3)CCCC21C (stereo not shown) [Compound 44]	%	320
C=C1/C(=C\C=C\[C@@H]2CC[C@](C)(CCCCC(O)(CC)CC)C2(C)C)C[C@@H](O)C[C@@H]1O [Compound 38]	%	100
C=C1C(=CC=CCC2(C)CCC(CCCC(O)(CC)CC)C2(C)C)CC(O)CC1O (stereo not shown) [Compound 16]	%	12

----------
Entries and their measured Affinity for human DBP follow.
# system name: human DBP (vitamin D binding protein) (Homo sapiens)
# Sequence (P02774 17-474): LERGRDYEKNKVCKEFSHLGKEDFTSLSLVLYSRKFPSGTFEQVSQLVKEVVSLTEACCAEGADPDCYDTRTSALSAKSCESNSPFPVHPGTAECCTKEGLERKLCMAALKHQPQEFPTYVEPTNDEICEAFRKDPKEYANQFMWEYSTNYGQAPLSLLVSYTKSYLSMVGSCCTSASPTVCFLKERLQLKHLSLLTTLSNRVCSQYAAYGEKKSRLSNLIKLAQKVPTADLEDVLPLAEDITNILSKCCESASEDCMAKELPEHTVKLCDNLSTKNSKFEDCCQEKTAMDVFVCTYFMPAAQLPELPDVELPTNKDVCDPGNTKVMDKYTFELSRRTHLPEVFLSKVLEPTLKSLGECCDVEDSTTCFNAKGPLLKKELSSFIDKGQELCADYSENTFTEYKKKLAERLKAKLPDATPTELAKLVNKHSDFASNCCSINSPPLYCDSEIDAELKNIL
# protocol description: Relative affinity for purified human vitamin D-binding protein (hDBP)
# condition info: % of the activity of 1α,25-(OH)2D3 at 50% of its activity (B50)
property: Affinity for human DBP (%)

compound	observed result
CC(CCCC(C)(C)O)C1CCC2C(=CC=C3CC(O)CC(O)C3)CCCC21C (stereo not shown)	7
C=C1C(=CC=CCC2(C)CCC(CCCCC(C)(C)O)C2(C)C)CC(O)CC1O (stereo not shown)	50
CC1=C(/C=C\C2=CCC[C@](C)([C@H](C)[C@H](C)CC[C@@H](O)C(C)C)C2)C[C@@H](O)C[C@@H]1O	1
CC(CC#CC(C)(C)O)C1CCC2C(=CC=C3CC(O)CC(O)C3)CCCC21C (stereo not shown) [Compound 44]	2
CCC(O)(CC)CCCCC(C)C1CCC2C(=CC=C3CC(O)CC(O)C3)CCCC21C (stereo not shown)	0
CCC(O)(C=CC=CC(C)C1CCC2C(=CC=C3CC(O)CC(O)C3)CCCC21C)CC (stereo not shown)	0
C=C1C(=CC=CCC2(C)CCC(CCCC(C)(C)O)C2(C)C)CC(O)CC1O (stereo not shown)	19
CC(CCCCC(C)(C)O)C1CCC2C(=CC=C3CC(O)CC(O)C3)CCCC21C (stereo not shown)	1
C=C1C(=CC=CCC2(C)CCC(CCCC(O)(CC)CC)C2(C)C)CC(O)CC1O (stereo not shown) [Compound 16]	0
CCC(O)(C#CCC(C)C1CCC2C(=CC=C3CC(O)CC(O)C3)CCCC21C)CC (stereo not shown)	0.3
C=C1/C(=C\C=C2/CCC[C@](C)([C@H](C)[C@H](C)CCCC(C)(C)O)C2)C[C@@H](O)C[C@@H]1O	20
C=C1C(=CC=C2CCCC3C2CCC3C(C)CCCC(C)(C)O)CC(O)CC1O (stereo not shown)	10
C=C1C(=CC=CCC2(C)CCC(CCCC(O)(CC)CC)C2(C)C)CC(O)CC1O (stereo not shown) [Compound 12]	5
CC(CC#CC1(C)CO1)C1CCC2C(=CC=C3CC(O)CC(O)C3)CCCC21C (mixture of isomers)	1.5
CC(CCCC(C)(C)O)C1CCC2C(=CC=C3CC(O)CC(O)C3)CCC(O)C21 (stereo not shown)	0
C=C1C(=CC=CC2CCCC(C(C)CCCC(C)(C)O)C2(C)C)CC(O)CC1O (stereo not shown)	70
